test-description: NCI Yeast Anticancer Drug Screen. Data for the rad52 strain (AID 147);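 further: 0% = growth of vehicle-treated control cultures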
run-parameters: S. cerevisiae rad52 mutant growth inhibition; at 3.7 µM; hits give high values
The panel holds about 79,000 compounds, 15% with a hit somewhere; the sample as a whole holds those more often.
test-readout: growth inhibition (%)
Numbers only, in %.

molecule	unit-symbol	growth inhibition
N#CC(=C1C=CC(=NO)C=C1)c1ccccc1	%	24

Could you report growth inhibition for every entry in the following list?
1. Cc1ccc(CNc2ccc(Br)cc2)cc1
2. O=C(CCc1ccccc1)ON1C(=S)C(c2ccccc2)(c2ccccc2)N=C1Sc1ccccc1
3. CN(N=O)c1ccc(/C=C/c2ccnc3ccccc23)cc1
4. Cc1ccc2occ/c(=N\Nc3ccccc3)c2c1

7
9
9
-4

Could you report growth inhibition for every entry in the following list?
1. CC[C@@]1(OC(=O)CN(C)C)C(=O)OCc2c1cc1n(c2=O)Cc2cc3c(N)cccc3nc2-1
2. COc1ccc2oc(-c3ccc(Cl)cc3)c(N3CCN(C)CC3)c2c1

[75, 0]

Could you report growth inhibition for every entry in the following list?
1. N#C/C(=C/N1C(=O)/C(=C/c2ccc([N+](=O)[O-])cc2)SC1=S)c1nc2ccccc2s1
2. CN(C)CC1CCCc2ccccc2C1=O (stereo unspecified)
3. COc1ccc(N=Nc2ccc3oc(=O)c(C(=O)Nc4ccccc4)cc3c2)cc1
4. N#C/C(=C1C=C/C(=N/O)c2ccccc2/1)c1ccccc1

1. 9
2. -39
3. -2
4. -1

----------
test-description: NCI Yeast Anticancer Drug Screen. Data for the rad18 strain (AID 177)
run-parameters: S. cerevisiae rad18 mutant growth inhibition; at 3.7 µM; hits give high values
Compounds without any hit were thinned out: in the full panel of roughly 79,000, 15% have a hit.
Assign growth inhibition to each entry below.
Give bare numbers, in %.

Reference set, count: 5
compound	test-readout	numeric-result
COc1cc(CNc2ccc(C(C)C)cc2)cc(OC)c1OC	growth inhibition	9
S=P(N1CC1)(N1CC1)N1CC1	growth inhibition	-1
S=c1cn[nH]c2ccc(Br)cc12	growth inhibition	2
CCCCCCCCCCCc1nc(N)n[nH]1	growth inhibition	-5
Oc1ccccc1N=Cc1ccc(Cl)cc1	growth inhibition	30

Could you report growth inhibition for every entry in the following list?
1. CC1=CC2C(C(C)C)CC1C1C(=O)OC(=O)C21 (stereo not drawn)
2. O=C(CCc1ccccc1)ON1C(=S)C(c2ccccc2)(c2ccccc2)N=C1Sc1ccccc1
3. CCN(CC)CCNC(=O)c1nn(-c2ccc(Cl)cc2)c2c1CCc1cc(OC)ccc1-2
4. C=C1N(C)c2ccc(Cl)cc2C1(C)C
5. CCOP1(=O)C=C(Sc2ccc([N+](=O)[O-])cc2[N+](=O)[O-])C(C)(C)O1 (stereo not drawn)
6. C/C(=N\NC(=S)NC1CCCC1)c1ccccn1

1: -6; 2: 19; 3: 4; 4: -18; 5: 9; 6: 79

Could you report growth inhibition for every entry in the following list?
1. CCN1/C(=C/c2ccc3ccccc3[n+]2CC)C=Cc2ccccc21
2. Cc1ccc(Nc2n[nH]c(=S)s2)cc1

-4
-10

----------
test-description: NCI Yeast Anticancer Drug Screen. Data for the sgs1 mgt1 strain (AID 161);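 further: 0% = growth of cultures given vehicle only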
run-parameters: S. cerevisiae sgs1 mgt1 strain, at 50.0 µM, hits give high values
This is part of a sample that, as a whole, favours compounds with a hit. Of some 79,000 tested, about 15% had one in any assay.
1 means recorded growth inhibition is 60% or above; -1 means it is below 60%.

chemical-smiles	class-label
C/C=C/[P+](c1ccccc1)(c1ccccc1)c1ccccc1	1
CC(=O)O[C@H]1C(=O)[C@@]2(C)[C@H]([C@H](OC(=O)c3ccccc3)[C@]3(O)C[C@H](OC(=O)[C@H](O)[C@@H](NC(=O)c4ccccc4)c4ccccc4)C(C)=C1C3(C)C)[C@]1(OC(C)=O)CO[C@@H]1C[C@@H]2O	-1
Cc1cccc(/C=N/NC(=S)N(C)CCc2ccccn2)n1	1
CCCCCCSc1nc(COC(=O)NC)c(COC(=O)NC)n1C	-1
CC(C)(C)c1ccc(O)c(C(c2ccc([N+](=O)[O-])cc2)c2cc(C(C)(C)C)ccc2O)c1	-1

Please tell me: is the compound CO[C@@]12[C@H](COC(N)=O)C3=C(C(=O)C(C)=C(N)C3=O)N1C[C@@H]1N[C@@H]12 at or over 60% in terms of growth inhibition? -1

Please tell me: is the compound C=C(CCCO)[C@@H]1CC[C@@](C)(O)[C@H]1C at or over 60% in terms of growth inhibition? -1

Please tell me: is the compound O=[N+]([O-])c1cccc2nc3ccccc3c(NCCc3cccc[n+]3[O-])c12 at or over 60% in terms of growth inhibition? 1

Please tell me: is the compound Cc1ccc(N=Nc2ccc(O)c(C)c2)cc1 at or over 60% in terms of growth inhibition? 1

Just for reference, PubChem BioAssay (NCI) is where these values come from.
